Assay system: 11β-HSD1 (Homo sapiens, UniProt P28845)
Sequence (P28845 whole entry): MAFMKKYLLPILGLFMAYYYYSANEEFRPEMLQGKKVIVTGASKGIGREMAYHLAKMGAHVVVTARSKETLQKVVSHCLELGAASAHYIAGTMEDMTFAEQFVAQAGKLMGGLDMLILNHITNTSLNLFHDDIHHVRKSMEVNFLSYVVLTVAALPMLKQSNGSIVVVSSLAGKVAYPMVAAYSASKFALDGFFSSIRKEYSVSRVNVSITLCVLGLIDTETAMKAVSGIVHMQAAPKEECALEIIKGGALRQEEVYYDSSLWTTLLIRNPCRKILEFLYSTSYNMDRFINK
Assay context: Biological Test Example 1; 100 nM; 0.1 µM
Short version: Average % inhibition at 100 nM at least 90% is true, less is false.

C[C@@H](c1ccc(Br)cc1)N1CCC(CCCO)(C(C)(C)C)OC1=O (single isomer, unassigned) [EXAMPLE 335 Isomer 2]
true
C[C@@H](c1ccc(-c2ccc(F)cc2F)cc1)N1CCC(CCO)(C(C)(C)C)OC1=O (single isomer, unassigned) [EXAMPLE 336 Isomer 2]
true
C[C@@H](c1ccc(-c2ccc(F)cc2F)cc1)N1CCC(CCO)(C(C)(C)C)OC1=O (single isomer, unassigned) [EXAMPLE 336 Isomer 1]
false
CC(O)C[C@]1(c2ccc(F)cc2)CCN([C@@H](C)c2ccc(Br)cc2)C(=O)O1 (single isomer, unassigned) [EXAMPLE 371 Isomer 2]
true
CC(O)CC[C@]1(c2ccc(F)cc2)CCN([C@@H](C)c2ccc(F)cc2)C(=O)O1 (single isomer, unassigned) [EXAMPLE 411 Isomer 2]
true

Determine whether this compound has Average % inhibition at 100 nM no lower than 90%: COc1ccc([C@H](C)N2CCC(CCCO)(C(C)C)OC2=O)cc1 (single isomer, unassigned) [EXAMPLE 332 Isomer 2] false

Determine whether this compound has Average % inhibition at 100 nM no lower than 90%: CC(O)C[C@]1(c2ccc(F)cc2)CCN([C@@H](C)c2ccc(C(F)(F)F)cc2)C(=O)O1 (single isomer, unassigned) [EXAMPLE 388 Isomer 2] true

Determine whether this compound has Average % inhibition at 100 nM no lower than 90%: C[C@@H](c1ccc(Br)cc1)N1CCC(CCCO)(C(C)(C)C)OC1=O (single isomer, unassigned) [EXAMPLE 335 Isomer 1] false

###

Assay system: 11β-HSD1 (Homo sapiens, UniProt P28845)
Protocol text: biochemical
Assay context: read-out: Average % inhibition at 100 nM, Biological Test Example 1; 100 nM
Catalogue of inhibition at 0.1 µM values
Report only the number, with the unit % understood.

In the examples that follow, each entry is paired with its recorded inhibition at 0.1 µM.
C[C@@H](c1ccc(C(F)(F)F)cc1)N1CC[C@](CCCO)(c2ccccc2)OC1=O [EXAMPLE 532]
96.3
C[C@@H](c1ccc(Br)cc1)N1CC[C@](CC(C)(C)C(N)=O)(c2ccc(F)cc2)OC1=O [EXAMPLE 522]
97.5
C=CC[C@]1(c2ccc(F)cc2)CCN([C@@H](C)c2cccc(C(C)(C)O)c2)C(=O)O1 [EXAMPLE 364]
66.3

Form field inhibition at 0.1 µM for item CC(=O)NC(C)(C)C[C@]1(c2ccc(F)cc2)CCN([C@@H](C)c2ccc(Br)cc2)C(=O)O1 [EXAMPLE 626] on 11β-HSD1 (Homo sapiens, UniProt P28845): 94.8

Form field inhibition at 0.1 µM for item C[C@@H](c1cccc(Br)c1)N1CC[C@](CCCO)(c2ccc(F)cc2)OC1=O [EXAMPLE 354] on 11β-HSD1 (Homo sapiens, UniProt P28845): 95.2

Form field inhibition at 0.1 µM for item C[C@@H](c1ccc(OC(F)F)cc1)N1CC[C@](CCCO)(c2ccccc2)OC1=O [EXAMPLE 329] on 11β-HSD1 (Homo sapiens, UniProt P28845): 99.8

Form field inhibition at 0.1 µM for item C[C@@H](c1ccc(-c2ccc(F)cc2)cc1)N1CC[C@](CC(C)(C)C(N)=O)(c2ccccc2)OC1=O [EXAMPLE 568] on 11β-HSD1 (Homo sapiens, UniProt P28845): 97.7

Form field inhibition at 0.1 µM for item C[C@@H](c1ccc(C(F)(F)F)cc1)N1CC[C@](CC(C)(C)O)(c2ccc(F)cc2)OC1=O [EXAMPLE 390] on 11β-HSD1 (Homo sapiens, UniProt P28845): 96.3
